SYSTEM: UniProt P08172
Sequence (P08172 whole entry): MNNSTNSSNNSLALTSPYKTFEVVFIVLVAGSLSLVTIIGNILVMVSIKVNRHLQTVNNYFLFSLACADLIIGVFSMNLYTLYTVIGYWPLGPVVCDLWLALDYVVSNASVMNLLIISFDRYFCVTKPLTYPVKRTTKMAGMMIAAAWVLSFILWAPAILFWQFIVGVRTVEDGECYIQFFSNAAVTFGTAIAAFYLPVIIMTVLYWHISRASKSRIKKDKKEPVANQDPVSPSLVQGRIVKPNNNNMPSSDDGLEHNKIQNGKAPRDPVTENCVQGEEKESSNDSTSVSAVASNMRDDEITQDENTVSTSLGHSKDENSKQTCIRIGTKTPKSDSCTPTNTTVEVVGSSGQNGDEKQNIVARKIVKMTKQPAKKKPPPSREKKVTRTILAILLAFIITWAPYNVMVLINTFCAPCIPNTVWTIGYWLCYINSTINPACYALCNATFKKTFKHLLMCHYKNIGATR
METHOD NOTES: Displacement of [3H]NMS from wild-type human mAChR2 expressed in Flp-in-CHO cell membranes in presence of mAChR2 agonist xanomeline after 90 mins by scintillation counting analysis
EXPERIMENTAL READOUT: Ki (nM)
Lab book: enter the figure in nM, no units written.

Q) Requested read-out: Ki. Entry: `COc1nc2sc(C(=O)NC3CC3)c(N)c2c(C)c1Cl`
A) 158
